The reported numbers originate from the supplement of paper PMC10567573.

B1: FAM50A (parent)
chain: KALEILRKDFSELRSAGVEQLMYI

variants of: B1; assay: protein stability index of a GFP-peptide fusion (GPS, HEK-293T) (PSI 1-6); higher = more stable; details: c terminus: a fixed tail appended;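 further: lentivirally expressed fusions sorted by FACS into six bins by GFP to DsRed ratio, PSI derived from sequencing read proportions per bin multiplied by bin number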
measurementType: protein stability index
Lab note: jot the number down without any unit.

Problem: State its protein stability index: S11H
Result: 2.97

Problem: State its protein stability index: S15D
Result: 1.14

Problem: State its protein stability index: E12R
Result: 4

Problem: State its protein stability index: E12S
Result: 3.99

Problem: State its protein stability index: M22C
Result: 2.56

Problem: State its protein stability index: R7L
Result: 3.87

Problem: State its protein stability index: R7P
Result: 2.28

Problem: State its protein stability index: L3M
Result: 2.02

Problem: State its protein stability index: D9A
Result: 2.4

Problem: State its protein stability index: M22Q
Result: 2.37

Problem: State its protein stability index: V18I
Result: 3.33

Problem: State its protein stability index: I5W
Result: 2.75

Problem: State its protein stability index: R7S
Result: 2.59

Problem: State its protein stability index: I5F
Result: 1.5

Problem: State its protein stability index: R7F
Result: 3.25

Problem: State its protein stability index: I5T
Result: 2.4

Problem: State its protein stability index: L6P
Result: 2.03

Problem: State its protein stability index: V18N
Result: 2.35

Problem: State its protein stability index: R14W
Result: 2.68

Problem: State its protein stability index: M22E
Result: 1.27

Problem: State its protein stability index: A2V
Result: 1.49

Problem: State its protein stability index: G17D
Result: 1.95

Problem: State its protein stability index: L3T
Result: 1.84

Problem: State its protein stability index: E19N
Result: 2

Problem: State its protein stability index: A2W
Result: 2.73

Problem: State its protein stability index: L6H
Result: 1.55

Problem: State its protein stability index: K1A
Result: 3.07

Problem: State its protein stability index: E12Q
Result: 3.76

Problem: State its protein stability index: I5K
Result: 1.69

Problem: State its protein stability index: V18E
Result: 2.9

Problem: State its protein stability index: I24Q
Result: 1.73

Problem: State its protein stability index: V18Y
Result: 2.02

Problem: State its protein stability index: D9C
Result: 2.89

Problem: State its protein stability index: L21N
Result: 2.82

Problem: State its protein stability index: D9F
Result: 2.6

Problem: State its protein stability index: K1T
Result: 1.91

Problem: State its protein stability index: R14K
Result: 1.51

Problem: State its protein stability index: F10H
Result: 3.24

Problem: State its protein stability index: Q20K
Result: 4.59

Problem: State its protein stability index: L3P
Result: 2.77

Problem: State its protein stability index: R7H
Result: 2.58

Problem: State its protein stability index: E19Q
Result: 2.95

Problem: State its protein stability index: S11E
Result: 2.51

Problem: State its protein stability index: R14L
Result: 4.57

Problem: State its protein stability index: I5Y
Result: 2.52

Problem: State its protein stability index: E19G
Result: 1.76

Problem: State its protein stability index: K1P
Result: 2.04

Problem: State its protein stability index: L21R
Result: 3.83

Problem: State its protein stability index: L21Y
Result: 3.12

Problem: State its protein stability index: M22D
Result: 2.22

Problem: State its protein stability index: K1N
Result: 1.86

Problem: State its protein stability index: R7A
Result: 1.25

Problem: State its protein stability index: K1V
Result: 1.18

Problem: State its protein stability index: S11R
Result: 2.76

Problem: State its protein stability index: A16E
Result: 3.17

Problem: State its protein stability index: F10V
Result: 3.72

Problem: State its protein stability index: L13A
Result: 3.08

Problem: State its protein stability index: L6E
Result: 2.13

Problem: State its protein stability index: K8F
Result: 3.19

Problem: State its protein stability index: E4K
Result: 2.34

Problem: State its protein stability index: K8W
Result: 3.31

Problem: State its protein stability index: F10N
Result: 2.32

Problem: State its protein stability index: E19L
Result: 2.18

Problem: State its protein stability index: L6N
Result: 1.74

Problem: State its protein stability index: I5H
Result: 3.56

Problem: State its protein stability index: L13H
Result: 5.15

Problem: State its protein stability index: L6K
Result: 1.09

Problem: State its protein stability index: M22F
Result: 2.34

Problem: State its protein stability index: L21A
Result: 1.78

Problem: State its protein stability index: L3C
Result: 3.15

Problem: State its protein stability index: Q20V
Result: 3.63

Problem: State its protein stability index: L6S
Result: 2.27

Problem: State its protein stability index: A2R
Result: 3.76

Problem: State its protein stability index: K8N
Result: 3.03

Problem: State its protein stability index: A2S
Result: 2.96

Problem: State its protein stability index: Q20M
Result: 1.54

Problem: State its protein stability index: Y23N
Result: 1.03

Problem: State its protein stability index: V18L
Result: 3.85

Problem: State its protein stability index: A2K
Result: 1.75

Problem: State its protein stability index: Q20P
Result: 3.58

Problem: State its protein stability index: K8R
Result: 4.36

Problem: State its protein stability index: R7I
Result: 2.18
